From: ChEMBL document CHEMBL3603830

target: P2Y purinoceptor 6 (Homo sapiens, UniProt Q15077); assay: Agonist activity at human recombinant P2Y6 receptor expressed in human 1321N1 cells assessed as increase in intracellular calcium level at >100 uM by fluo-4 dye-based spectrofluorometric analysis; format: functional, cell-based
Sequence (Q15077 whole entry): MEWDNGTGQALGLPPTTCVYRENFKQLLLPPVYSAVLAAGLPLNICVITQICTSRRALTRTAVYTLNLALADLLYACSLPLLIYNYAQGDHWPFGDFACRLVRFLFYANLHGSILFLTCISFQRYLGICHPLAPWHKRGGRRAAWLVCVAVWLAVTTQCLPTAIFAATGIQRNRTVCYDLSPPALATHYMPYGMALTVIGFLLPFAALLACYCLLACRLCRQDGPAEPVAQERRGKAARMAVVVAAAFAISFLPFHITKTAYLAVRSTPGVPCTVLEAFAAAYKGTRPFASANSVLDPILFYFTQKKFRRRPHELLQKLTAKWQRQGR
The source made the active and inactive calls. No cut-off for these calls is given here.
Classes to choose from: yes for active, no for inactive

What was the test verdict on `COc1cn([C@@H]2O[C@H](COP(=O)(O)C(F)(F)P(=O)(O)O)[C@@H](O)[C@H]2O)c(=O)[nH]c1=O` ?
yes

What was the test verdict on `O=c1[nH]c(=O)n([C@H]2C[C@H](O)[C@@H](COP(=O)(O)C(Cl)(Cl)P(=O)(O)O)O2)cc1F` ?
no

What was the test verdict on `O=c1[nH]c(=O)n([C@H]2C[C@H](O)[C@@H](COP(=O)(O)CP(=O)(O)O)O2)cc1F` ?
yes

What was the test verdict on `O=c1[nH]c(=O)n([C@H]2C[C@H](O)[C@@H](COP(=O)(O)C(F)(F)P(=O)(O)O)O2)cc1F` ?
no

Now for a further compound.
What was the test verdict on `O=c1[nH]c(=O)n([C@H]2C[C@H](OP(=O)(O)O)[C@@H](COP(=O)(O)O)O2)cc1F` ?
yes

###

molecular target: NPP3 (ectonucleotide pyrophosphatase/phosphodiesterase family member 3) (Homo sapiens); assay: Drug metabolism assessed as human NPP3-mediated compound hydrolysis at 100 uM after 3 hrs by HPLC analysis relative to UDP-treated control; format: ADME; conditions: human NPP3 enzyme, read-out: Drug metabolism
Sequence (O14638 whole entry): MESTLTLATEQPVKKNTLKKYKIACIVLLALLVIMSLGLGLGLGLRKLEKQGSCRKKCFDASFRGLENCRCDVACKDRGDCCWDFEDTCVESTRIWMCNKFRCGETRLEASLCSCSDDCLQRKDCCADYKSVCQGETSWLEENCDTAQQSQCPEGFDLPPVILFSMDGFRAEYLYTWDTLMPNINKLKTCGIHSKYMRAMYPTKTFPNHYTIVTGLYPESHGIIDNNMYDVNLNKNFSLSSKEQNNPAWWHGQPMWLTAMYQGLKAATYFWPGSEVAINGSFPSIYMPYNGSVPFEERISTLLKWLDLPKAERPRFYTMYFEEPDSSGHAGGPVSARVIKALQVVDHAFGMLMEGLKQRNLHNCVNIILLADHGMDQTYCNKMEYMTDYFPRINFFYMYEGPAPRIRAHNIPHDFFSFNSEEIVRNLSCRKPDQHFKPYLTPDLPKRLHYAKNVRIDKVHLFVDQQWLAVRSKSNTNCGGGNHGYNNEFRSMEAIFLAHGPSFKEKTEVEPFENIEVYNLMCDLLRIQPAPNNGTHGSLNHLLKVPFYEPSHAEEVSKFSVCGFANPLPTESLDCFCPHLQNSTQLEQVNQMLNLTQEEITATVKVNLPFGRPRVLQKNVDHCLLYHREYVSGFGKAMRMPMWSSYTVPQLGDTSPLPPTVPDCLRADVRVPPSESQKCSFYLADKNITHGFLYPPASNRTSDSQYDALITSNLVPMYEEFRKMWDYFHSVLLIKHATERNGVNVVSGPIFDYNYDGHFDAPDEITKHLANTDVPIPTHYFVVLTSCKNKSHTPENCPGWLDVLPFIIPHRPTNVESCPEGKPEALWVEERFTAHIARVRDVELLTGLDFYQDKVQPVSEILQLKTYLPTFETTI
Reported metabolised at 3 h, 100 µM is given for each of the following compounds.
Give a bare numeral; the unit % is implied.

Suppose we examine the compound `COc1cn([C@@H]2O[C@H](COP(=O)(O)CS(=O)(=O)O)[C@@H](O)[C@H]2O)c(=O)[nH]c1=O` ; what metabolised at 3 h, 100 µM value has been reported?
11

Further cases:
Suppose we examine the compound `O=c1ccn([C@@H]2O[C@H](COP(=O)(O)CS(=O)(=O)O)[C@@H](O)[C@H]2O)c(=O)[nH]1` ; what metabolised at 3 h, 100 µM value has been reported?
13.5

Suppose we examine the compound `O=c1[nH]c(=O)n([C@@H]2O[C@H](COP(=O)(O)OS(=O)(=O)O)[C@@H](O)[C@H]2O)cc1F` ; what metabolised at 3 h, 100 µM value has been reported?
44.4

Suppose we examine the compound `O=c1ccn([C@@H]2O[C@H](COP(=O)(O)OS(=O)(=O)O)[C@@H](O)[C@H]2O)c(=O)[nH]1` ; what metabolised at 3 h, 100 µM value has been reported?
28.3

###

biological target: P2Y purinoceptor 6 (Homo sapiens); assay: Agonist activity at human recombinant P2Y6 receptor expressed in human 1321N1 cells assessed as increase in intracellular calcium level by fluo-4 dye-based spectrofluorometric analysis; assay type: functional, cell-based
Calls of active or inactive are those of the source. No cut-off for these calls is given here.
Classes to choose from: Y = active, N = inactive

As a guide, the following entries are already answered.
What was the test verdict on `O=c1[nH]c(=O)n([C@@H]2O[C@H](COP(=O)(O)C(Cl)(Cl)P(=O)(O)O)[C@@H](O)[C@H]2O)cc1F` ?
Y

What was the test verdict on `O=c1[nH]c(=O)n([C@@H]2O[C@H](COP(=O)(O)CP(=O)(O)O)[C@@H](O)[C@H]2O)cc1-c1ccccc1` ?
N

Further cases:
What was the test verdict on `CC(C)c1cn([C@@H]2O[C@H](COP(=O)(O)CP(=O)(O)O)[C@@H](O)[C@H]2O)c(=O)[nH]c1=O` ?
N

What was the test verdict on `O=c1[nH]c(=O)n([C@@H]2O[C@H](COP(=O)(O)C(F)(F)P(=O)(O)O)[C@@H](O)[C@H]2O)cc1F` ?
Y
